target: mitochondrial diazepam binding inhibitor receptor (MDR) (Rattus norvegicus, UniProt P16257)
Sequence (P16257 whole entry): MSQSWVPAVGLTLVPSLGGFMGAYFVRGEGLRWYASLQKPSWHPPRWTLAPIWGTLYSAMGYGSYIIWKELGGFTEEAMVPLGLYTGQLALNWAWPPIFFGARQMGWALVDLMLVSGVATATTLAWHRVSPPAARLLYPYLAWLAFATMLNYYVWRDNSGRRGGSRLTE
pIC50: −log10 of the molar value.
Kind request: treat 8 as inclusive, so pIC50 at 8 or higher is true, anything lower is false.

stdin: Does the reported pIC50 for CCCCCCN(CCCCCC)C(=O)C1Cc2ccccc2-c2nc3ccccc3n21 (stereo not drawn) fall at or above the 8 mark?
stdout: false

stdin: Does the reported pIC50 for CCCCCCN(CCCCCC)C(=O)C1Sc2ccccc2-c2[nH]c3c(F)cc(F)cc3c21 (stereo not drawn) fall at or above the 8 mark?
stdout: false

stdin: Does the reported pIC50 for CCCCCCN(CCCCCC)C(=O)C1Sc2ccccc2-c2c1c1ccccc1n2C (stereo not drawn) fall at or above the 8 mark?
stdout: true

stdin: Does the reported pIC50 for CCCCCCN(CCCCCC)C(=O)C1c2c([nH]c3ccccc23)-c2ccccc2S1(=O)=O (stereo not drawn) fall at or above the 8 mark?
stdout: true

stdin: Does the reported pIC50 for COCCN(CCOC)C(=O)C1Sc2ccccc2-c2[nH]c3ccccc3c21 (stereo not drawn) fall at or above the 8 mark?
stdout: true

stdin: Does the reported pIC50 for CCCCCCN(CCCCCC)C(=O)C1Sc2ccccc2-c2[nH]c3ccc(Cl)cc3c21 (stereo not drawn) fall at or above the 8 mark?
stdout: false

stdin: Does the reported pIC50 for CCCNC(=O)C1Sc2ccccc2-c2[nH]c3ccccc3c21 (stereo not drawn) fall at or above the 8 mark?
stdout: false

stdin: Does the reported pIC50 for CCCCCCN(CCOCCC)C(=O)C1Sc2ccccc2-c2[nH]c3ccccc3c21 (stereo not drawn) fall at or above the 8 mark?
stdout: true

stdin: Does the reported pIC50 for CCCN(CCC)C(=O)C1c2c([nH]c3ccccc23)-c2ccccc2S1(=O)=O (stereo not drawn) fall at or above the 8 mark?
stdout: true

stdin: Does the reported pIC50 for CCCN(CCC)C(=O)C1Cc2ccccc2-c2nc3ccccc3n21 (stereo not drawn) fall at or above the 8 mark?
stdout: false

stdin: Does the reported pIC50 for CCCCCCN(CCCCCC)C(=O)C1Sc2ccccc2-c2[nH]c3ccccc3c21 (racemic) [Compound 06] fall at or above the 8 mark?
stdout: true

stdin: Does the reported pIC50 for CCN(CC)C(=O)C1Sc2ccccc2-c2[nH]c3ccccc3c21 (stereo not drawn) fall at or above the 8 mark?
stdout: true

stdin: Does the reported pIC50 for CN(C)C(=O)C1Sc2ccccc2-c2[nH]c3ccccc3c21 (stereo not drawn) fall at or above the 8 mark?
stdout: false

stdin: Does the reported pIC50 for CCCCCCN(CCCCCC)C(=O)C1Sc2ccccc2-c2[nH]c3ccccc3c21 (single isomer, unassigned; (-)) [Compound 07] fall at or above the 8 mark?
stdout: false

stdin: Does the reported pIC50 for CCCCCCN(CCCCCC)C(=O)C1c2c([nH]c3ccccc23)-c2ccccc2N1C=O (stereo not drawn) fall at or above the 8 mark?
stdout: false

stdin: Does the reported pIC50 for CCCCCCN(CCCCCC)C(=O)C1Sc2ccccc2-c2[nH]c3ccccc3c21 (single isomer, unassigned; (+)) [Compound 08] fall at or above the 8 mark?
stdout: true

stdin: Does the reported pIC50 for CCCN(CCC)C(=O)C1Sc2ccccc2-c2[nH]c3ccccc3c21 (stereo not drawn) fall at or above the 8 mark?
stdout: true

stdin: Does the reported pIC50 for CCCCCCN(CCCCCC)C(=O)C1Cc2ccccc2-c2[nH]c3ccccc3c21 (stereo not drawn) fall at or above the 8 mark?
stdout: true
